Target: P2X purinoceptor 3 (Homo sapiens) (UniProt P56373)
Sequence (P56373 whole entry): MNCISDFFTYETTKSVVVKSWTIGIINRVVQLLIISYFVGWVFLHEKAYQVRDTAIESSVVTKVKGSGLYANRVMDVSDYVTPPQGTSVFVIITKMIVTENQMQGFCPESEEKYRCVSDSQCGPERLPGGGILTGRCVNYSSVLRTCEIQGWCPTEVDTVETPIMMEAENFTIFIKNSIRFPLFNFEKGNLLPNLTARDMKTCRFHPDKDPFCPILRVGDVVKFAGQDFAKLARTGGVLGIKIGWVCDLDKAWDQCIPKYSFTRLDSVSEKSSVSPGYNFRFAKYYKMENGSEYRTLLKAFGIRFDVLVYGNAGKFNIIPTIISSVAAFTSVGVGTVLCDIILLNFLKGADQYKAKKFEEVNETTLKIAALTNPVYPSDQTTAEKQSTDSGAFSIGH
Test: Antagonist activity at human recombinant P2X3 receptor expressed in Xenopus oocytes assessed as inhibition of ATP-induced ion current at 10 uM incubated for 20 mins prior to ATP-induction by two-electrode voltage clamp assay
Type: cell-based
Settings: Oocyte
The source made the active and inactive calls. The calls are words filed in the database; no cut-off is given here.
measured.attribute: inhibition

Look over these answered cases.
Cc1ncc(CCC(=O)O)c(C=O)c1O : 22.3%
Cc1ncc(CN(CCC(=O)O)Cc2ccccc2)c(C=O)c1O : inactive
Cc1ncc(COP(=O)(O)O)c(C=O)c1O [PYRIDOXAL PHOSPHATE ANHYDROUS] : 20.1%
Cc1ncc(CN(CCC(=O)O)Cc2ccccc2)c(C(=O)O)c1O : inactive

GET /values?readout=inhibition&item= Cc1ncc(CCC(=O)O)c(C(=O)O)c1O
15.2%

GET /values?readout=inhibition&item= Cc1ncc(/C=C/C(=O)O)c(C=O)c1O
9.3%

GET /values?readout=inhibition&item= Cc1ncc(/C=C/C(=O)O)c(C(=O)O)c1O
inactive

----------
Target: P2X purinoceptor 1 (Mus musculus) (UniProt P51576)
Sequence (whole entry): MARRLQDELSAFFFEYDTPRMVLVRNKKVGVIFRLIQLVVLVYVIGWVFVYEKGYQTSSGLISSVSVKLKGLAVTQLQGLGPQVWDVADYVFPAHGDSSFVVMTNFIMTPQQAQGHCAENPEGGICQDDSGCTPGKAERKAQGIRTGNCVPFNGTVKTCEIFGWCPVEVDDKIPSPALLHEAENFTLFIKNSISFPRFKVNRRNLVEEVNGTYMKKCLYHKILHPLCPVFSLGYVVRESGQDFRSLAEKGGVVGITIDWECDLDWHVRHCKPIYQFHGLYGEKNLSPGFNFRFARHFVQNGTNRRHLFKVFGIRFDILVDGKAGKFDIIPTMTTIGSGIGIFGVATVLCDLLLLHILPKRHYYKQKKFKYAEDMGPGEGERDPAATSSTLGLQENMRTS
Experiment: Antagonist activity at mouse recombinant P2X1 receptor expressed in Xenopus oocytes assessed as inhibition of ATP-induced ion current at 100 nM incubated for 20 mins prior to ATP-induction by two-electrode voltage clamp assay
Assay type: cell-based
Settings: Oocyte
measured.attribute: inhibition (%)
State the answer as a number, implicitly in %.

Look over these answered cases.
Cc1nc(/N=N/c2ccc(C(=O)O)cc2)c(CCC(=O)O)c(C=O)c1O : 48.5
Cc1nc(/N=N/c2ccc(S(=O)(=O)O)cc2)c(CCC(=O)O)c(C=O)c1O : 41.8
Cc1nc(/N=N/c2ccc(C(=O)O)cc2)c(CCC(=O)O)c(C(=O)O)c1O : 51.7
Cc1nc(/N=N/c2ccc(S(=O)(=O)O)cc2)c(CCC(=O)O)c(C(=O)O)c1O : 57.6
Cc1nc(/N=N/c2cc(S(=O)(=O)O)ccc2S(=O)(=O)O)c(CCC(=O)O)c(C(=O)O)c1O : 60.2

Lookup: inhibition / P2X purinoceptor 1 (Mus musculus) (UniProt P51576) / Cc1nc(/N=N/c2cc(S(=O)(=O)O)ccc2S(=O)(=O)O)c(CCC(=O)O)c(C=O)c1O
58.6

----------
Target: P2X purinoceptor 1 (Mus musculus) (UniProt P51576)
Experiment: Antagonist activity at mouse recombinant P2X1 receptor expressed in Xenopus oocytes assessed as inhibition of ATP-induced ion current at 10 uM incubated for 20 mins prior to ATP-induction by two-electrode voltage clamp assay
Assay type: cell-based
Details: Oocyte
Calls of active or inactive are those of the source. The rule behind the calls is not given here.
measured.attribute: inhibition

Look over these answered cases.
Cc1ncc(CN(CCC(=O)O)Cc2ccccc2)c(C=O)c1O : inactive
Cc1ncc(/C=C/C(=O)O)c(C(=O)O)c1O : inactive
Cc1ncc(CCC(=O)O)c(C(=O)O)c1O : 14.8%
Cc1ncc(COP(=O)(O)O)c(C=O)c1O [PYRIDOXAL PHOSPHATE ANHYDROUS] : 13.2%
Cc1ncc(/C=C/C(=O)O)c(C=O)c1O : 7.4%

GET /values?readout=inhibition&item= Cc1ncc(CCC(=O)O)c(C=O)c1O
19.5%

GET /values?readout=inhibition&item= Cc1ncc(CN(CCC(=O)O)Cc2ccccc2)c(C(=O)O)c1O
inactive

Reference source for all entries: ChEMBL document CHEMBL2375299
